Reference for the values: the supplement of paper PMC10567573

B1: TOR1AIP2 (parent)
chain: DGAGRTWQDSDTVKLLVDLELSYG

- Variants of: B1
- EXPERIMENT_NOTES: protein stability index of a GFP-peptide fusion (GPS, HEK-293T) (PSI 1-6); higher = more stable;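 further: lentivirally expressed fusions sorted by FACS into six bins by GFP to DsRed ratio, PSI derived from sequencing read proportions per bin multiplied by bin number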
- EXPERIMENTAL_CONTEXT: c terminus: a fixed tail appended
Quick rule for you: protein stability index at 3 or higher means Y, lower means N.

* L16M | N
* S22P | Y
* D11R | N
* L15P | Y
* W7V | N
* G4L | N
* Q8P | N
* T12M | N
* D18S | N
* R5K | N
* L15I | N
* V13P | Y
* R5Q | N
* G4F | N
* L19K | Y
* G2I | N
* L15F | N
* A3D | N
* S22I | N
* L15T | Y
* S22Y | N
* R5V | Y
* S10Q | N
* T6Q | N
* R5H | Y
* Q8M | N
* D18H | N
* Q8S | Y
* V17W | N
* T12R | N
* G2A | N
* D11A | N
* G4M | N
* A3E | N
* T12D | Y
* D11F | N
* Y23R | N
* V13D | Y
* W7I | N
* A3K | N
* D18M | N
* A3Y | N
* W7A | Y
* R5Y | N
* D18P | Y
* L19S | Y
* W7L | N
* S22F | N
* T12V | N
* R5G | N
* A3I | N
* L19C | N
* Y23H | N
* G2H | N
* T12E | Y
* K14A | N
* G4C | N
